Test system: SK-MEL-246 cells (Class 2, BRAF^G469A)
Test: Cell proliferation (MTS) assay
Type: cell-based
Details: 120 h, 5-day treatment, read-out: EC50, cell growth
I'd be grateful if you could share measured pEC50 for these entries.
Numbers only, as −log10 of the molar value.

CCCS(=O)(=O)Nc1ccc(F)c(C(=O)c2c[nH]c3ncc(-c4ccc(N5CCN(CC(=O)NC(C(=O)N6CC(O)CC6C(=O)NCc6ccc(-c7scnc7C)cc6)C(C)(C)C)CC5)cc4)cc23)c1F (centres unmarked) [SJF-0628] = 7.35

Now let's try a different one.
Value lookup for pEC50; key = CCCS(=O)(=O)Nc1ccc(F)c(C(=O)c2c[nH]c3ncc(-c4ccc(N5CCN(CC(=O)N[C@H](C(=O)N6C[C@@H](O)C[C@H]6C(=O)NCc6ccc(-c7scnc7C)cc6)C(C)(C)C)CC5)cc4)cc23)c1F [SJF-0661] 6.56
